Values were extracted from the RNAGym collection of RNA variant scans (doi:10.7554/elife.80360).

Reported self-cleavage values are given for each entry in this list.
B1: Hairpin Ribozyme (parent)
chain: GUCCUCUUUCACGUGCGCGUGAAAGAGAGAAGUGAACCAGAGAAACACACGUUGUGGUAUAUUACCUGGUA

- Variants of: B1
- experiment_summary: self-cleavage, relative activity (ratio to wild type); higher = more cleavage; co-transcriptional
metric: self-cleavage

var	experimental_value
U8C C46G	0.188
A49G U60G	0.547
A45U G54U	0.0699
A35G A39G	0.348
G29A A71C	0.295
U9C U58A	0.559
A28G U62A	0.287
C10U A31C	0.135
U33G G51C	0.202
U5G A36C	0.38
A28C C46U	0.151
A24U U67A	0.0716
C12A G51C	0.78
G21A C65G	0.158
U9G G21C	0.736
C6G U55G	0.167
A43U A49C	0.173
G1C A39U	0.187
A24G A59C	0.213
G15A U20G	0.85
U33A A71G	0.178
U33C C50A	0.114
C16U G57C	0.113
U2C U53C	0.0859
A22U A28C	0.561
A39C U58C	0.568
A61G G68C	0.195
G17U U55C	0.301
A11G C65G	0.31
G34C U52G	0.379
G15C A64C	0.162
G1U A45G	0.0992
G13C A22G	0.496
C38A G42A	0.111
G56U C66U	0.0775
U58G U63C	0.271
U9A C48G	0.127
U20G C38A	0.184
C10A U52G	0.731
G42C U67G	0.125
C6U G21C	0.597
C38A A43C	0.0755
U20C G54C	0.373
C16U A24U	1.02
A22G C37A	0.312
G1A A23G	0.123
